Items are presented alongside their recorded viability, T/C.
Test system: 616215-338-R-J1-PDC complex spheroid growth, % test/control;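 also: spheroids exposed to agents for seven days before readout; 100% = DMSO vehicle control viability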
Test: Anticancer human tumor 616215-338-R-J1-PDC patient-derived colon adenocarcinoma cell line growth inhibition [Asc]
Details: second compound 0.3 µM; first compound 1 µM; hits give low values

Consider the worked cases shown below.
{"Compound": "O=C(c1cc(Cc2n[nH]c(=O)c3ccccc23)ccc1F)N1CCN(C(=O)C2CC2)CC1 + CCN1C(C(=O)NC23CCC(C(=O)O)(CC2)CC3)C(c2cccc(Cl)c2F)C2(C(=O)Nc3cc(Cl)ccc32)C12CCCCC2", "Assay System": "616215-338-R-J1-PDC complex spheroid growth, % test/control", "viability, T/C": "71.8%"}
{"Compound": "COc1c(OCCCN2CCOCC2)ccc2c3n(c(=NC(=O)c4cnc(N)nc4)nc12)CCN3 + CCN1C(C(=O)NC23CCC(C(=O)O)(CC2)CC3)C(c2cccc(Cl)c2F)C2(C(=O)Nc3cc(Cl)ccc32)C12CCCCC2", "Assay System": "616215-338-R-J1-PDC complex spheroid growth, % test/control", "viability, T/C": "3.12%"}

Which viability, T/C is reported for this compound? C=CC(=O)N1CCN(c2nc(=O)n(-c3c(C)ccnc3C(C)C)c3nc(-c4c(O)cccc4F)c(F)cc23)C(C)C1 (centres undefined) + CCN1C(C(=O)NC23CCC(C(=O)O)(CC2)CC3)C(c2cccc(Cl)c2F)C2(C(=O)Nc3cc(Cl)ccc32)C12CCCCC2
69.2%

Note, next up: C#Cc1c(F)ccc2cc(O)cc(-c3ncc4c(N5CC6CCC(C5)N6)nc(OCC56CCCN5CC(F)C6)nc4c3F)c12 (centres undefined) + CCN1C(C(=O)NC23CCC(C(=O)O)(CC2)CC3)C(c2cccc(Cl)c2F)C2(C(=O)Nc3cc(Cl)ccc32)C12CCCCC2
54%
